These entries and their values trace back to the supplement of paper PMC4858399.

Quick reference for mean nematode size ln(EXT) (ln) among some compounds
system: Caenorhabditis elegans N2; test: mean nematode size ln(EXT) after 48 h, plate-adjusted (DMSO control set to 6) (ln(EXT), control-adjusted); higher = larger nematodes / less growth inhibition; details: 5 µM; exposure time 48 h
Form field (numeric): enter value without unit.

Solved cases below.
INSERT INTO assay_data (compound, target_under_test, meas_value) VALUES
  ('CN(C[C@@H](CC[N+]12CCC(C3CCCCC3)(CC1)CC2)c1ccc(Cl)c(Cl)c1)C(=O)c1cc(C(F)(F)F)cc(C(F)(F)F)c1', 'Caenorhabditis elegans N2', 5.97),
  ('Clc1cc(Cl)c2c(c1)N=C1CCCCCN1C2', 'Caenorhabditis elegans N2', 5.72),
  ('Cc1oc(-c2ccccc2)nc1CCOc1ccc(C[C@H](Nc2ccccc2C(=O)c2ccccc2)C(=O)O)cc1', 'Caenorhabditis elegans N2', 5.92);

Okay, now this compound:
Q) Fill in: mean nematode size ln(EXT) (ln) of O=C(O)C1=NN(c2ccc(S(=O)(=O)O)cc2)C(=O)C1N=Nc1ccc(S(=O)(=O)O)cc1 (stereo not drawn) is ___
A) 5.97

* * *

Quick reference for AC50 for larval growth inhibition among some compounds
test system: Caenorhabditis elegans N2; test: AC50 for larval growth inhibition (Hill fit); higher = less potent; details: exposure time 48 h
State the answer as a number, implicitly in µM.

INSERT INTO results (compound, meas_value) VALUES
  ('NC(=O)N1C(=O)C(C(=O)c2cc(Cl)cs2)c2cc(F)c(Cl)cc21 (centres undefined)', 1.41),
  ('CCCCOC(=O)CCCCCCCCC(=O)OCCCC [Dibutyl sebacate]', 27),
  ('N#CSCSC#N [Methylene bis(thiocyanate)]', 17.5),
  ('O=C(Nc1ccc(Cl)cc1)Nc1ccc(Cl)c(Cl)c1 [3,4,4''-Trichlorocarbanilide]', 0.964),
  ('ClC1=C(Cl)C2(Cl)C3C(Cl)C(Cl)CC3C1(Cl)C2(Cl)Cl (centres undefined) [Chlordane]', 8.58);

Q) Item: CCCN(CCOc1c(Cl)cc(Cl)cc1Cl)C(=O)n1ccnc1 [Prochloraz] Test system: Caenorhabditis elegans N2 Read-out: AC50 for larval growth inhibition Value: ?
A) 153

Q) Item: c1ccc(C(O[C@@H]2CCCN(CCc3ccc4c(c3)OCO4)C2)c2ccccc2)cc1 [Zamifenacin] Test system: Caenorhabditis elegans N2 Read-out: AC50 for larval growth inhibition Value: ?
A) 70.4

* * *

test system: Caenorhabditis elegans N2; assay: mean nematode size ln(EXT) after 48 h, plate-adjusted (DMSO control set to 6) (ln(EXT), control-adjusted); higher = larger nematodes / less growth inhibition; conditions: 50 µM; exposure time 48 h
Where a name gives a salt, the structure may show the parent alone.
Quick reference for mean nematode size ln(EXT) (ln) among some compounds
Form field (numeric): enter value without unit.

INSERT INTO results (compound, meas_value) VALUES
  ('COCCO [Methyl cellusolve]', 5.99);

Q) Item: CCCN(CCC)c1c([N+](=O)[O-])cc(C(F)(F)F)c(N)c1[N+](=O)[O-] [Prodiamine] Test system: Caenorhabditis elegans N2 Read-out: mean nematode size ln(EXT) (ln) Value: ?
A) 5.99

Q) Item: O=c1[nH]sc2ccccc12 [1,2-Benzisothiazolin-3-one] Test system: Caenorhabditis elegans N2 Read-out: mean nematode size ln(EXT) (ln) Value: ?
A) 5.69

Q) Item: CSc1ccc(Oc2ccc(S(N)(=O)=O)cc2CN(C)C)cc1C Test system: Caenorhabditis elegans N2 Read-out: mean nematode size ln(EXT) (ln) Value: ?
A) 5.83

Q) Item: CCCN(CCC)N=O [N-Nitrosodipropylamine] Test system: Caenorhabditis elegans N2 Read-out: mean nematode size ln(EXT) (ln) Value: ?
A) 5.87

Q) Item: COc1cc(-c2ccc(N)c(OC)c2)ccc1N [3,3'-Dimethoxybenzidine dihydrochloride] Test system: Caenorhabditis elegans N2 Read-out: mean nematode size ln(EXT) (ln) Value: ?
A) 5.72

Q) Item: ClC(Cl)=C(c1ccc(Cl)cc1)c1ccc(Cl)cc1 [p,p'-DDE] Test system: Caenorhabditis elegans N2 Read-out: mean nematode size ln(EXT) (ln) Value: ?
A) 3.94

Q) Item: CON(C)C(=O)Nc1ccc(Cl)c(Cl)c1 [Linuron] Test system: Caenorhabditis elegans N2 Read-out: mean nematode size ln(EXT) (ln) Value: ?
A) 6.16

Q) Item: O=S(=O)(O)c1ccc(N=Nc2c(O)ccc3cc(S(=O)(=O)O)ccc23)cc1 [FD&C Yellow no. 6] Test system: Caenorhabditis elegans N2 Read-out: mean nematode size ln(EXT) (ln) Value: ?
A) 5.89

Q) Item: c1ccc2occc2c1 [2,3-Benzofuran] Test system: Caenorhabditis elegans N2 Read-out: mean nematode size ln(EXT) (ln) Value: ?
A) 6.02

Q) Item: O=P(OC(CCl)CCl)(OC(CCl)CCl)OC(CCl)CCl [Tris(1,3-dichloro-2-propyl) phosphate (TDCPP)] Test system: Caenorhabditis elegans N2 Read-out: mean nematode size ln(EXT) (ln) Value: ?
A) 5.39

Q) Item: COc1cnc(OC)n2nc(NS(=O)(=O)c3c(OCC(F)F)cccc3C(F)(F)F)nc12 [Penoxsulam] Test system: Caenorhabditis elegans N2 Read-out: mean nematode size ln(EXT) (ln) Value: ?
A) 6.01

Q) Item: C[N+](C)(C)CC1CO1 (centres undefined) [Oxiranemethanaminium, N,N,N-trimethyl-, chloride] Test system: Caenorhabditis elegans N2 Read-out: mean nematode size ln(EXT) (ln) Value: ?
A) 5.83
